Test: Oral bioavailability in mice, Method B (plasma and brain PK)
Assay type: in vivo, C57BL/6 mice
Conditions: male, C57BL/6; mouse brain, Method B, 1 mg/kg po
measure: Cmax (ng/g)
Only the number, expressed in ng/g, is required.

INSERT INTO results (molecule, measure, unittext, reportedvalue) VALUES
  ('CN[C@]1(c2ccc(F)cc2)CCCCC1=O [Compound 2S]', 'Cmax', 'ng/g', 80.4);

Looking up N[C@]1(c2cccc(F)c2)CCCCC1=O [Compound 3S] , I found its Cmax recorded as 112

Looking up CN[C@@]1(c2ccc(F)cc2)CCCCC1=O [Compound 2R] , I found its Cmax recorded as 177

Looking up N[C@]1(c2ccc(F)cc2)CCCCC1=O [Compound 1S] , I found its Cmax recorded as 82.2

* * *

Assay: Oral bioavailability in mice, Method B (plasma and brain PK)
Assay type: in vivo, C57BL/6 mice
Settings: mouse brain, Method B, 1 mg/kg iv; values represent AUC0-last
measure: AUC0-inf (iv)

Worked cases, answers included:
INSERT INTO assay_data (compound, measure, reportedvalue) VALUES
  ('CN[C@]1(c2ccc(F)cc2)CCCCC1=O [Compound 2S]', 'AUC0-inf (iv)', '21,532 ng*min/g'),
  ('N[C@]1(c2ccc(F)cc2)CCCCC1=O [Compound 1S]', 'AUC0-inf (iv)', '14,776 ng*min/g'),
  ('N[C@]1(c2cccc(F)c2)CCCCC1=O [Compound 3S]', 'AUC0-inf (iv)', '18,797 ng*min/g');

Looking up CN[C@@]1(c2ccc(F)cc2)CCCCC1=O [Compound 2R] , I found its AUC0-inf (iv) recorded as 17,791 ng*min/g

* * *

Let's look at some molecules and their measured Cmax.
Experiment: Oral bioavailability in mice, Method B (plasma and brain PK)
Type: in vivo, C57BL/6 mice
Settings: male, C57BL/6; mouse plasma, Method B, 1 mg/kg po
Only the number, expressed in ng/mL, is required.

Worked cases, answers included:
INSERT INTO measurements (substancesmiles, reportedvalue) VALUES
  ('CN[C@@]1(c2ccc(F)cc2)CCCCC1=O', 53.6),
  ('CN[C@]1(c2ccc(F)cc2)CCCCC1=O', 51.7),
  ('N[C@]1(c2cccc(F)c2)CCCCC1=O', 640);

# input for lookup
Looking up `N[C@]1(c2ccc(F)cc2)CCCCC1=O` , I found its Cmax recorded as 394

* * *

Experiment: Stability in liver microsomes (Example 21), cynomolgus monkey
Format: in vitro ADME
Conditions: male, pH 7.4, 0.5 mg/mL protein
measure: microsomal CLint at 1 μM (µL/min/mg)
Only the number, expressed in µL/min/mg, is required.

Worked cases, answers included:
INSERT INTO results (compound, reportedvalue) VALUES
  ('CN[C@@]1(c2ccc(F)cc2)CCCCC1=O', 9.5),
  ('CN[C@]1(c2ccc(F)cc2)CCCCC1=O', 15.3);

# input for lookup
Looking up CNC1(c2ccccc2F)CCCCC1=O (stereo not drawn) [Compound 2-F-DCK, reference compound] , I found its microsomal CLint at 1 μM recorded as 212

* * *

Assay: Oral bioavailability in rats, Method A (plasma PK)
Type: in vivo, Sprague Dawley rats
Conditions: male, Sprague Dawley, rat plasma, 10 mg/kg po, read-out: AUC0-inf (po) (converted)
measure: AUC(0-inf) (ng·h/mL)
Only the number, expressed in ng·h/mL, is required.

Looking up CNC1(c2ccccc2Cl)CCCCC1=O (racemic) [racemic ketamine, ketamine] , I found its AUC(0-inf) recorded as 125
